Protocol description: Experimental LogD (partition coefficient)
Measurement parameters: not stated, Partition Coeff LogD
Positions of bridges follow the written chain, without caps; N, C: chain ends. Non-standard residues stand in square brackets, D forms with d. Residues, ends and D or L forms follow the SMILES beside them. Lys(N3) = [N-]=[N+]=NCCCC[C@H](N)C(=O)O; R8 = C=CCCCCCC[C@@](C)(N)C(=O)O; Cba = N[C@@H](CC1CCC1)C(=O)O; S5 = C=CCCC[C@](C)(N)C(=O)O; Aib = CC(C)(N)C(=O)O; βAla = NCCC(=O)O
This section presents compounds with their documented logD values.

Compound	logD
CC(=O)N[C@@H](CC(C)C)C(=O)N[C@H](C(=O)N[C@@H](Cc1ccccc1)C(=O)NC(C)(C)C(=O)N[C@@H](CCC(=O)O)C(=O)N[C@@H](Cc1ccc(O)cc1)C(=O)N[C@@H](Cc1c[nH]c2ccccc12)C(=O)N[C@@H](C)C(=O)N[C@@H](CCC(N)=O)C(=O)N[C@@H](CC(C)C)C(=O)NC(C)(C)C(=O)N[C@@H](CO)C(N)=O)[C@@H](C)O [MP-790] (Ac-LTF[Aib]EYWAQL[Aib]S-NH2)	2.11
CC(=O)N[C@@H](CCCCN=[N+]=[N-])C(=O)N[C@@H](CO)C(=O)NCC(=O)N[C@@H](CO)C(=O)N[C@@H](CC(C)C)C(=O)N[C@H](C(=O)N[C@@H](Cc1ccccc1)C(=O)N[C@]1(C)CCCCCCC=CCCC[C@@](C)(C(=O)N[C@@H](CO)C(=O)N[C@@H](C)C(=O)N[C@@H](C)C(N)=O)NC(=O)[C@H](CC2CCC2)NC(=O)[C@H](CCC(N)=O)NC(=O)[C@H](C)NC(=O)[C@H](Cc2c[nH]c3ccccc23)NC(=O)[C@H](Cc2ccc(O)cc2)NC(=O)[C@H](CCC(=O)O)NC1=O)[C@@H](C)O	2.67
CC(C)C[C@H](NC(=O)CCNC(=O)[C@@H](N)CCCCN=[N+]=[N-])C(=O)N[C@H](C(=O)N[C@@H](Cc1ccccc1)C(=O)N[C@]1(C)CCCCCCC=CCCC[C@@](C)(C(N)=O)NC(=O)[C@H](CC2CCC2)NC(=O)[C@H](CC(C)C)NC(=O)[C@H](CCC(N)=O)NC(=O)[C@H](Cc2c[nH]c3ccccc23)NC(=O)[C@H](Cc2ccc(O)cc2)NC(=O)[C@H](CCC(=O)O)NC1=O)[C@@H](C)O [MP-329] (H-[Lys(N3)][βAla]LTF[R8]EYWQL[Cba][S5]-NH2; staple 6-13)	2.71
CC(=O)N[C@@H](CCCCN=[N+]=[N-])C(=O)NCCC(=O)N[C@@H](CC(C)C)C(=O)N[C@H](C(=O)N[C@@H](Cc1ccccc1)C(=O)N[C@]1(C)CCCCCCC=CCCC[C@@](C)(C(=O)N[C@@H](CO)C(=O)N[C@@H](C)C(=O)N[C@@H](C)C(N)=O)NC(=O)[C@H](CC2CCC2)NC(=O)[C@H](CCC(N)=O)NC(=O)[C@H](CCC(=O)O)NC(=O)[C@H](Cc2c[nH]c3ccccc23)NC(=O)[C@H](Cc2ccc(O)cc2)NC(=O)[C@H](CCC(=O)O)NC1=O)[C@@H](C)O	2.38
CC(=O)N[C@@H](CC(C)C)C(=O)N[C@H](C(=O)N[C@@H](Cc1ccccc1)C(=O)N[C@]1(C)CCCCCCC=CCCC[C@@](C)(C(=O)N[C@@H](Cc2c[nH]cn2)C(=O)N[C@@H](C)C(=O)N[C@@H](C)C(N)=O)NC(=O)[C@H](CC2CCC2)NC(=O)[C@H](CC(C)C)NC(=O)[C@H](CCC(N)=O)NC(=O)[C@H](Cc2c[nH]c3ccccc23)NC(=O)[C@H](Cc2ccc(O)cc2)NC(=O)[C@H](CCC(=O)O)NC1=O)[C@@H](C)O [MP-201, ATSP-7041 (S12H)] (Ac-LTF[R8]EYWQL[Cba][S5]HAA-NH2; staple 4-11)	2.64

For reference, reported logD for CC(=O)N[C@@H](CCCCN=[N+]=[N-])C(=O)NCCC(=O)N[C@@H](CC(C)C)C(=O)N[C@@H](CCCNC(=N)N)C(=O)N[C@@H](Cc1ccccc1)C(=O)N[C@]1(C)CCCCCCC=CCCC[C@@](C)(C(=O)N[C@@H](CO)C(=O)N[C@@H](C)C(=O)N[C@@H](C)C(N)=O)NC(=O)[C@H](CC2CCC2)NC(=O)[C@H](CCC(N)=O)NC(=O)[C@H](C)NC(=O)[C@H](Cc2c[nH]c3ccccc23)NC(=O)[C@H](Cc2ccc(O)cc2)NC(=O)[C@H](CCC(=O)O)NC1=O [MP-553] (Ac-[Lys(N3)][βAla]LRF[R8]EYWAQ[Cba][S5]SAA-NH2; staple 6-13) stands at 2.86

For reference, reported logD for CC(=O)N[C@@H](CCCCN=[N+]=[N-])C(=O)NCCC(=O)N[C@H](C(=O)N[C@@H](CO)C(=O)N[C@@H](Cc1ccccc1)C(=O)N[C@]1(C)CCCCCCC=CCCC[C@@](C)(C(=O)N[C@@H](CO)C(=O)N[C@@H](C)C(=O)N[C@@H](C)C(N)=O)NC(=O)[C@H](CC(C)C)NC(=O)[C@H](CC(C)C)NC(=O)[C@H](C)NC(=O)[C@H](Cc2c[nH]c3ccccc23)NC(=O)[C@H](Cc2ccc(O)cc2)NC(=O)[C@H](CCC(=O)O)NC1=O)[C@@H](C)O stands at 2.7

For reference, reported logD for CC(=O)N[C@@H](CC(C)C)C(=O)N[C@H](C(=O)N[C@@H](Cc1ccccc1)C(=O)N[C@]1(C)CCCCCCC=CCCC[C@@](C)(C(=O)N[C@@H](CO)C(=O)N[C@@H](C)C(=O)N[C@@H](C)C(N)=O)NC(=O)[C@H](CC2CCC2)NC(=O)[C@H](CC(C)C)NC(=O)[C@H](CCC(N)=O)NC(=O)[C@H](Cc2c[nH]c3ccccc23)NC(=O)[C@H](Cc2ccc(O)cc2)NC(=O)[C@H](Cc2c[nH]cn2)NC1=O)[C@@H](C)O [MP-199, ATSP-7041 (E5H)] (Ac-LTF[R8]HYWQL[Cba][S5]SAA-NH2; staple 4-11) stands at 3.25
